Ref: patent US8383637B2

target entity: β-secretase(BACE) (Homo sapiens, UniProt P56817)
Construct: purchased Panvera
Sequence (P56817 46-501): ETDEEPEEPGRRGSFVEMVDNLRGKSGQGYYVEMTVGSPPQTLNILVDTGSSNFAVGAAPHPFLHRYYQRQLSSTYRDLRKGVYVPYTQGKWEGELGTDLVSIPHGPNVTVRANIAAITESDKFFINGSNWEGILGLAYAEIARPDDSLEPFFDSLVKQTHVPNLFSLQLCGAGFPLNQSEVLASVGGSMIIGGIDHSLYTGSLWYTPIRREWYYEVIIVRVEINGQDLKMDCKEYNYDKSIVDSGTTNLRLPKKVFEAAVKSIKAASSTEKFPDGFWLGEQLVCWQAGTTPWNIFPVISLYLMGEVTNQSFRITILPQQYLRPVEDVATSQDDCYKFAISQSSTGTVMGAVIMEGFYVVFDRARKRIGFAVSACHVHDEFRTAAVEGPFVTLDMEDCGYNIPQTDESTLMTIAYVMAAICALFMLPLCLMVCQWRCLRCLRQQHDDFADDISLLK
test details: BACE Assay-2 (FS1 substrate, IC50 and Ki)
Type: biochemical
test settings: procedure of Example 159, FS1 substrate; read-out: Ki μM (159)
Method: The FS1-substrate stock solution was prepared in DMSO as a 10 mg/mL solution. The FS1-substrate working solution was prepared by diluting the 10 mg/mL stock solution with substrate assay buffer to a final concentration of 300 μg/mL. […] For test compounds, measured at multiple concentrations, the measured T0 and T60 values were used to calculate an IC50 value using Graphpad Software (or PIR). […]
Please respond with reported Ki for every item in the list.
Dear colleague, please return just the value in µM, with no unit written.

Ask | Please report the recorded Ki for CN(C(=O)CCC(c1ccc(Cl)cc1)N1Cc2cc(Oc3ccccc3)ccc2N=C1N)C1CCCCC1 (stereo not shown) [Compound 297] .
Reply | 0.12

Ask | Please report the recorded Ki for NC1=Nc2ccc(Oc3ccccc3)cc2CN1[C@@H](CCC(=O)N(CC(=O)O)C1CCCCC1)C1CCCCC1 [Compound 768] .
Reply | 0.013

Ask | Please report the recorded Ki for NC1=Nc2ccc(Oc3ccccc3)cc2CN1[C@@H](CCC(=O)N[C@@H](COCc1ccccc1)C(=O)O)C1CCOCC1 [Compound 782] .
Reply | 0.015

Ask | Please report the recorded Ki for CN(C(=O)c1cccc(CN2Cc3cc(-c4ccccc4[N+](=O)[O-])ccc3N=C2N)c1)C1CCCCC1 [Compound 333] .
Reply | 0.49

Ask | Please report the recorded Ki for CN(C(=O)c1ccc(CN2Cc3cc(Oc4ccccc4)ccc3N=C2N)o1)C1CCCCC1 [Compound 424] .
Reply | 0.4

Ask | Please report the recorded Ki for COC1CCCC(C(=O)NCCN2Cc3cc(Oc4ccccc4)ccc3N=C2N)C1 (stereo not shown) [Compound 219] .
Reply | 0.17

Ask | Please report the recorded Ki for NC1=Nc2ccc(Oc3ccccc3)cc2CN1CCNC(=S)NC12CC3CC(CC(C3)C1)C2 [Compound 214] .
Reply | 0.1

Ask | Please report the recorded Ki for NC1=Nc2ccc(Oc3ccccc3)cc2CN1CCC(=O)NC12CC3CC(CC(C3)C1)C2 [Compound 365] .
Reply | 0.1

Ask | Please report the recorded Ki for NC1=Nc2ccc(-c3ccccc3)cc2CN1CCNC(=O)C1CCCCC1 [Compound 515] .
Reply | 0.13

Ask | Please report the recorded Ki for CN(C(=O)CCN1Cc2cc(Oc3ccccc3)ccc2N=C1N)C1CCCCC1 [Compound 20] .
Reply | 0.34

Ask | Please report the recorded Ki for CN(CCc1ccccc1)C(=O)CC[C@@H](C1CCCCC1)N1Cc2cc(-c3ccccc3F)ccc2N=C1N [Compound 727] .
Reply | 0.43

Ask | Please report the recorded Ki for CN(CCc1ccccc1)C(=O)CCCCN1Cc2cc(C(=O)c3ccccc3)ccc2N=C1N [Compound 50] .
Reply | 0.53

Ask | Please report the recorded Ki for CC(C)[C@@H](CCC(=O)N(C)C1CCCCC1)N1Cc2cc(Oc3ccccc3)ccc2N=C1N [Compound 444] .
Reply | 0.58

Ask | Please report the recorded Ki for CN(C(=O)c1cccc(C(c2ccccc2)N2Cc3cc(Oc4ccccc4)ccc3N=C2N)c1)C1CCCCC1 (stereo not shown) [Compound 136] .
Reply | 0.5

Ask | Please report the recorded Ki for CC(C)(C)OC(=O)NCC(c1ccccc1)N1Cc2cc(Oc3ccccc3)ccc2N=C1N (stereo not shown) [Compound 258] .
Reply | 0.33

Ask | Please report the recorded Ki for CN(C(=O)CC[C@@H](C1CCC2(CC1)OCCO2)N1Cc2cc(Oc3ccccc3)ccc2N=C1N)C1CCCCC1 [Compound 730] .
Reply | 0.054
